I'd appreciate it if you could supply sensor-assay potency score (higher = more potent) values for the items below.
tgt: CYTH4
protocol_description: pooled miR-30 sensor sort-seq; sequence = guide strand; note: reference of the scale not given here
experimental_parameters: shRNA
Field format: numeric only.

QUERY: Requested read-out: sensor-assay potency score (higher = more potent). Entry: `TTGAGCAGCCAACCCTCCCGGT`
RESULT: -1.04

QUERY: Requested read-out: sensor-assay potency score (higher = more potent). Entry: `TTTCGGTGCCACTTGATCCTCT`
RESULT: -0.308

QUERY: Requested read-out: sensor-assay potency score (higher = more potent). Entry: `TTGAGGTTGGCGAACTCGTGGC`
RESULT: -0.377

QUERY: Requested read-out: sensor-assay potency score (higher = more potent). Entry: `TTCATGGACACAAAGCGCTCGA`
RESULT: -0.11

QUERY: Requested read-out: sensor-assay potency score (higher = more potent). Entry: `TCCATGTTGAACTTCTTGCGCC`
RESULT: -1.08

QUERY: Requested read-out: sensor-assay potency score (higher = more potent). Entry: `AAGGACAACACGTAGCAGGTGT`
RESULT: 0.877

QUERY: Requested read-out: sensor-assay potency score (higher = more potent). Entry: `TTGTCGGTCAGGATGAACCAGC`
RESULT: -0.768
